This collection of values is drawn from paper PMC2937036.

Recorded half-life at 5 µM for the following compounds
assay: in vitro; conditions: male, human, 25% human male serum
Where a SMILES comes first, the peptide text is derived from it.

Data request: Complete the entry with half-life at 5 µM for CC(=O)N[C@@H](CCCNC(=N)N)C(=O)N[C@@H](CCCNC(=N)N)C(=O)N[C@@H](Cc1c[nH]c2ccccc12)C(=O)N[C@@H](Cc1c[nH]c2ccccc12)C(=O)N[C@@H](CCCNC(=N)N)C(=O)N[C@@H](Cc1ccccc1)C(N)=O [Com4, CH3CO-RRWWRF-NH2] (Ac-RRWWRF-NH2)
Data returned: ~1.5 h

Continue with the next compound.
Data request: Complete the entry with half-life at 5 µM for CC(=O)N[C@@H](CCCNC(=N)N)C(=O)N[C@@H](CCCNC(=N)N)C(=O)N[C@@H](Cc1c[nH]c2ccccc12)C(=O)N[C@@H](CCC(N)=O)C(=O)N[C@@H](Cc1c[nH]c2ccccc12)C(=O)N[C@@H](CCCNC(=N)N)C(N)=O [Lfc4, CH3CO-RRWQWR-NH2] (Ac-RRWQWR-NH2)
Data returned: ~1.5 h

* * *

experiment: in vitro; conditions: male, human, 25% human male serum
Where a SMILES comes first, the peptide text is derived from it.
quantity name: half-life at 5 µM

Below, each entry is followed by its recorded half-life at 5 µM result.
Data request: Complete the entry with half-life at 5 µM for N=C(N)NCCC[C@H](NC(=O)[C@H](Cc1c[nH]c2ccccc12)NC(=O)[C@H](CCC(N)=O)NC(=O)[C@H](Cc1c[nH]c2ccccc12)NC(=O)[C@H](CCCNC(=N)N)NC(=O)[C@@H](N)CCCNC(=N)N)C(=O)O [Lfc1, RRWQWR] (H-RRWQWR-OH)
Data returned: < 0.5 h

Data request: Complete the entry with half-life at 5 µM for N=C(N)NCCC[C@H](NC(=O)[C@H](Cc1c[nH]c2ccccc12)NC(=O)[C@H](Cc1c[nH]c2ccccc12)NC(=O)[C@H](CCCNC(=N)N)NC(=O)[C@@H](N)CCCNC(=N)N)C(=O)N[C@@H](Cc1ccccc1)C(=O)O [Com1, RRWWRF] (H-RRWWRF-OH)
Data returned: < 0.5 h

Data request: Complete the entry with half-life at 5 µM for CC(=O)N[C@@H](CCCNC(=N)N)C(=O)N[C@@H](CCCNC(=N)N)C(=O)N[C@@H](Cc1c[nH]c2ccccc12)C(=O)N[C@@H](CCC(N)=O)C(=O)N[C@@H](Cc1c[nH]c2ccccc12)C(=O)N[C@@H](CCCNC(=N)N)C(=O)O [Lfc3, CH3CO-RRWQWR] (Ac-RRWQWR-OH)
Data returned: ~1 h

Continuing:
Data request: Complete the entry with half-life at 5 µM for CC(=O)N[C@@H](CCCNC(=N)N)C(=O)N[C@@H](CCCNC(=N)N)C(=O)N[C@@H](Cc1c[nH]c2ccccc12)C(=O)N[C@@H](Cc1c[nH]c2ccccc12)C(=O)N[C@@H](CCCNC(=N)N)C(=O)N[C@@H](Cc1ccccc1)C(=O)O [Com3, CH3CO-RRWWRF] (Ac-RRWWRF-OH)
Data returned: ~1 h

* * *

Recorded 99.9% Lethal Dose Concentration (LD99.9) S. aureus for the following compounds
test system: Staphylococcus aureus 42D; assay: Bactericidal assay (LD99.9), S. aureus; type: cell-based; conditions: 10 mM phosphate buffer pH 7.0 with 1% TSB, 2 h, 37°C
Where a SMILES comes first, the peptide text is derived from it.
Could you give me the number in µM? Just the number is fine.

Data request: Complete the entry with 99.9% Lethal Dose Concentration (LD99.9) S. aureus for CSCC[C@@H]1NC(=O)[C@H](CCCNC(=N)N)NC(=O)[C@H](Cc2c[nH]c3ccccc23)NC(=O)[C@H](CCC(N)=O)NC(=O)[C@H](Cc2c[nH]c3ccccc23)NC(=O)[C@H](CCCNC(=N)N)NC(=O)[C@H](CCCNC(=N)N)NC(=O)CNC(=O)[C@H](CC(C)C)NC(=O)[C@H](CCCCN)NC(=O)[C@H](CCCCN)NC1=O [Lfc8, -RRWQWRMKKLG-] (cyclo(RRWQWRMKKLG))
Data returned: 15

Data request: Complete the entry with 99.9% Lethal Dose Concentration (LD99.9) S. aureus for N=C(N)NCCC[C@H](NC(=O)[C@H](Cc1c[nH]c2ccccc12)NC(=O)[C@H](CCC(N)=O)NC(=O)[C@H](Cc1c[nH]c2ccccc12)NC(=O)[C@H](CCCNC(=N)N)NC(=O)[C@@H](N)CCCNC(=N)N)C(=O)O [Lfc1, RRWQWR] (H-RRWQWR-OH)
Data returned: 30

Data request: Complete the entry with 99.9% Lethal Dose Concentration (LD99.9) S. aureus for N=C(N)NCCC[C@@H]1NC(=O)[C@H](CCCNC(=N)N)NC(=O)[C@H](Cc2c[nH]c3ccccc23)NC(=O)[C@H](CCC(N)=O)NC(=O)[C@H](Cc2c[nH]c3ccccc23)NC(=O)[C@H](CCCNC(=N)N)NC1=O [Lfc5, -RRWQWR-] (cyclo(RRWQWR))
Data returned: 7.5

Data request: Complete the entry with 99.9% Lethal Dose Concentration (LD99.9) S. aureus for CC(=O)N[C@@H](CCCNC(=N)N)C(=O)N[C@@H](CCCNC(=N)N)C(=O)N[C@@H](Cc1c[nH]c2ccccc12)C(=O)N[C@@H](Cc1c[nH]c2ccccc12)C(=O)N[C@@H](CCCNC(=N)N)C(=O)N[C@@H](Cc1ccccc1)C(=O)O [Com3, CH3CO-RRWWRF] (Ac-RRWWRF-OH)
Data returned: 30
